Could you please report measured log αβ (logarithm of functional cooperativity between ACh and modulator) for the items listed next?
# target of assay: M1 mAChR (Homo sapiens)
# Construct: expressed in transfected cells; host or cells: parental FlpIn CHO cells (transient, PEI)
# Sequence (P11229 1-460): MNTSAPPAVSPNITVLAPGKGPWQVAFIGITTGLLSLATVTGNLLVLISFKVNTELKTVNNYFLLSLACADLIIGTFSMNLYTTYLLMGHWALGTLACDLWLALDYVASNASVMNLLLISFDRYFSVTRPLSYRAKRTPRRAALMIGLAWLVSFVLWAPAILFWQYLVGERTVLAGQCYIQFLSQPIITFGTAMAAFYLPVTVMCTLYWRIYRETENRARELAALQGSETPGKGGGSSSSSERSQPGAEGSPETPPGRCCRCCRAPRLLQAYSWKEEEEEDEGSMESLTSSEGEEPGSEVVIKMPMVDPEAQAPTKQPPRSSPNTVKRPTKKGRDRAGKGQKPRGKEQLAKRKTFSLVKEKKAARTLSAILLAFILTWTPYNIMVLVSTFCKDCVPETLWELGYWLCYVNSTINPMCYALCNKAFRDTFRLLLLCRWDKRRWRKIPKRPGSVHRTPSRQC
# method notes: β-arrestin 2 recruitment assay (BRET)
# Assay type: cell-based
# reported conditions: operational model, pKB constrained to binding value
Reply with the value as a number alone.

Query: Param item = COc1ccc(Cn2cc(C(=O)O)c(=O)c3ccccc32)cc1 [BQCA, reference compound] ; retrieve measured log αβ (logarithm of functional cooperativity between ACh and modulator).
Result: 1.95

Query: Record: CN(C)C(=O)Cn1ccc(-c2ccccc2OCc2ccc(-c3cnn(C)c3)cc2)cc1=O [Compound 13c]
Result: 1.74

Query: How about Cn1cc(-c2ccc(COc3ncccc3-c3ccn(C4CCCCC4O)c(=O)c3)cc2)cn1 (stereo not drawn) [Compound 7f] ?
Result: 1.91

Query: Next up: Cn1cc(-c2ccc(COc3ccccc3-c3ccn(C4CCCCC4=O)c(=O)c3)cc2)cn1 (stereo not drawn) [Compound 13d]
Result: 1.16

Query: Another molecule to look at: Cn1cc(-c2ccc(COc3ncccc3-c3cc(=O)n(C4CCCCC4O)cn3)cc2)cn1 (stereo not drawn) [Compound 26a]
Result: 1.98

Query: Then Cn1cc(-c2ccc(COc3ccccc3-c3ccn(C4CCCCC4O)c(=O)c3)cc2)cn1 (stereo not drawn) [Compound 1] ?
Result: 1.81

Query: Query Cn1cc(-c2ccc(COc3ccsc3-c3ccn(C4CCCCC4O)c(=O)c3)cc2)cn1 (stereo not drawn) [Compound 7h] next
Result: 2.98

Query: Same lookup for Cn1cc(-c2ccc(COc3ccccc3-c3cc(=O)n(C4CCCCC4O)cn3)cc2)cn1 (stereo not drawn) [Compound 2] , please.
Result: 1.80

Query: Further, for O=c1cc(-c2ccccc2OCc2ccc(-n3cccn3)nc2)ncn1C1CCCCC1O (stereo not drawn) [Compound 27b] ?
Result: 1.75

###

# method notes: in vivo
# reported conditions: male, C57Bl/6 J, mouse, brain/plasma, ip, 10 mg/kg
reported metric: Kp uu

Query: Reported Kp uu for Cn1cc(-c2ccc(COc3ccccc3-c3cc(=O)n(C4CCCCC4O)cn3)cc2)cn1 (stereo not shown) : what is it?
Result: < 0.1

###

# target of assay: M1 mAChR (Homo sapiens, UniProt P11229)
# Construct: expressed in transfected cells; host or cells: parental FlpIn CHO cells (transient, PEI)
# method notes: β-arrestin 2 recruitment assay (BRET)
# Assay type: cell-based
# reported conditions: operational model
reported metric: log τB (logarithm of intrinsic efficacy of the modulator)

Query: Given the compound Cn1cc(-c2ccc(COc3ccsc3-c3ccn(C4CCCCC4O)c(=O)c3)cc2)cn1 (stereo not shown) [Compound 7h] , what is its reported log τB (logarithm of intrinsic efficacy of the modulator)?
Result: 0.07±0.05

Origin of the recorded values: paper PMC7616174
